Recorded EC50 by entry
Biological target: KCNQ2/3 heteromultimers (Rattus norvegicus, UniProt O88943+O88944)
Construct: endogenous in cells; no transfection described
Experiment: cell-based Rb+ efflux assay in PC-12 cells
Details: Rb+ efflux cellular assay

Example compounds with recorded EC50:
Cc1cc2c(c(C)c1NC(=O)CC(C)(C)C)CCCC2Nc1cc(F)cc(F)c1 (centres unmarked)	1 to 10 nM
Cc1cc2c(c(C)c1NC(=O)CC(C)(C)C)CCC2Nc1ccc(F)nc1 (centres unmarked)	50 to 500 nM

(Q) State the recorded EC50 for this entry: CCOC(=O)Nc1ccc2c(c1)CCC2Nc1ccc(F)cc1 (centres unmarked)
(A) > 500 nM

(Q) State the recorded EC50 for this entry: Cc1cc2c(c(C)c1NC(=O)CC(C)(C)C)CCCC2Nc1ccc(F)cc1 (centres unmarked) [Example 2]
(A) 10 to 50 nM

(Q) State the recorded EC50 for this entry: Cc1cc2c(c(C)c1NC(=O)CC(C)(C)C)CCC2Nc1ccc(C(F)(F)F)cc1 (single isomer, unassigned; (+)) [Example 16]
(A) 1 to 10 nM

(Q) State the recorded EC50 for this entry: Cc1cc2c(c(C)c1NC(=O)CC(C)(C)C)CCC2Nc1ccc(C(F)(F)F)cc1 (centres unmarked) [Example 14]
(A) 1 to 10 nM

(Q) State the recorded EC50 for this entry: Cc1cc2c(c(C)c1NC(=O)CC(C)(C)C)CCC2Nc1ccc(Cl)c(Cl)c1 (centres unmarked)
(A) ≤ 1 nM

(Q) State the recorded EC50 for this entry: Cc1cc2c(c(C)c1NC(=O)CC(C)(C)C)CCC2Nc1ccc(F)cc1 (single isomer, unassigned; (+)) [Example 13]
(A) 1 to 10 nM
